# Test system: Jurkat
# assay.summary: cell count relative to DMSO control (fraction of control); higher = more cells (less growth inhibition)
# assay.conditions: 48 h
Where a name gives a salt, the structure may show the parent alone.
metric.name: cell count

compound: NC[C@H]1O[C@H](O[C@H]2[C@H](O)[C@@H](O[C@H]3O[C@H](CO)[C@@H](O)[C@H](N)[C@H]3O)[C@H](N)C[C@@H]2N)[C@H](O)[C@@H](O)[C@@H]1O [Kanamycin Sulfate] (concentration: 25 µM)
cell count: 1.06
//
compound: CC[C@H]1OC(=O)[C@H](C)[C@@H](O[C@H]2C[C@@](C)(OC)[C@@H](O)[C@H](C)O2)[C@H](C)[C@@H](O[C@@H]2O[C@H](C)C[C@H](N(C)C)[C@H]2O)[C@](C)(O)C[C@@H](C)CN(C)[C@H](C)[C@@H](O)[C@]1(C)O [Azithromycin] (concentration: 25 µM)
cell count: 0.628
//
compound: COC(=O)C1=C(C)NC(C)=C(C(=O)OC(C)C)C1c1cccc2nonc12 (stereo not given) [Isradipine] (concentration: 25 µM)
cell count: 1.13
//
compound: COC(=O)[C@H](c1ccccc1Cl)N1CCc2sccc2C1 [Clopidogrel Hydrogen Sulfate] (concentration: 25 µM)
cell count: 0.942

// field: cell count; key: CC(=O)NO [Acetohydroxamic Acid] (concentration: 25 µM) ; value = 0.755

###

# Tested on: Jurkat
# assay.summary: cell count relative to DMSO control (fraction of control); higher = more cells (less growth inhibition)
# assay.conditions: 48 h
Where a name gives a salt, the structure may show the parent alone.
Overview of reported cell count across a group of compounds:
Would you mind answering with just the numeric figure?

Guide cases for cell count, answers given:
compound: CN[C@H]1CC[C@@H](c2ccc(Cl)c(Cl)c2)c2ccccc21 [Sertraline·HCl] (concentration: 2.5 µM)
assayed.system: Jurkat
cell count: 0.853
--
compound: CCC(C)(C)C(=O)O[C@H]1C[C@@H](C)C=C2C=C[C@H](C)[C@H](CC[C@@H]3C[C@@H](O)CC(=O)O3)[C@H]21 [Simvastatin] (concentration: 25 µM)
assayed.system: Jurkat
cell count: 0.698
--
compound: O=C(O)c1ccc(-n2nc(-c3ccccc3O)nc2-c2ccccc2O)cc1 [Deferasirox] (concentration: 2.5 µM)
assayed.system: Jurkat
cell count: 0.636
--
compound: CCOC(=O)[C@H](CCc1ccccc1)N[C@@H](C)C(=O)N1Cc2cc(OC)c(OC)cc2C[C@H]1C(=O)O [Moexipril·HCl] (concentration: 25 µM)
assayed.system: Jurkat
cell count: 0.587
--
compound: CC(C)OC(=O)CCC/C=C\C[C@@H]1[C@@H](/C=C/[C@@H](O)COc2cccc(C(F)(F)F)c2)[C@H](O)C[C@@H]1O [Travoprost] (concentration: 25 µM)
assayed.system: Jurkat
cell count: 0.668
--
compound: Cc1nccn1CC1CCc2c(c3ccccc3n2C)C1=O (configuration not stated) [Ondansetron] (concentration: 25 µM)
assayed.system: Jurkat
cell count: 0.816
--
compound: Cc1cnc(C(=O)NCCc2ccc(S(=O)(=O)NC(=O)NC3CCCCC3)cc2)cn1 [Glipizide] (concentration: 25 µM)
assayed.system: Jurkat
cell count: 0.612
--
compound: CNNCc1ccc(C(=O)NC(C)C)cc1 [Procarbazine·HCl] (concentration: 25 µM)
assayed.system: Jurkat
cell count: 0.822

// field: cell count; key: OC(CNCC(O)C1CCc2cc(F)ccc2O1)C1CCc2cc(F)ccc2O1 (configuration not stated) [Nebivolol·HCl] (concentration: 25 µM) ; value = 0.483

// field: cell count; key: Clc1ccc2nsnc2c1NC1=NCCN1 [Tizanidine·HCl] (concentration: 25 µM) ; value = 0.771

// field: cell count; key: CO/N=C(\C(=O)N[C@@H]1C(=O)N2C(C(=O)[O-])=C(C[N+]3(C)CCCC3)CS[C@H]12)c1csc(N)n1 [Cefepime·HCl Hydrate] (concentration: 25 µM) ; value = 0.826

// field: cell count; key: C=CC[C@@H]1/C=C(\C)C[C@H](C)C[C@H](OC)[C@H]2O[C@@](O)(C(=O)C(=O)N3CCCC[C@H]3C(=O)O[C@H](/C(C)=C/[C@@H]3CC[C@@H](O)[C@H](OC)C3)[C@H](C)[C@@H](O)CC1=O)[C@H](C)C[C@@H]2OC [Tacrolimus (Fk506)] (concentration: 25 µM) ; value = 0.408

###

Overview of reported cell count across a group of molecules:
# System: Jurkat
# assay.summary: cell count relative to DMSO control (fraction of control); higher = more cells (less growth inhibition)
# assay.conditions: 48 h
Would you mind answering with just the numeric figure?

molecule: COc1ccccc1OCC(O)CN1CCN(CC(=O)Nc2c(C)cccc2C)CC1 (stereo not given) [Ranolazine·2HCl] (concentration: 25 µM)
reported.result: 0.979
--
molecule: Nc1ccn([C@@H]2O[C@H](CO)[C@@H](O)[C@@H]2O)c(=O)n1 [Cytarabine] (concentration: 25 nM)
reported.result: 0.297
--
molecule: O=C(C1CCCCC1)N1CC(=O)N2CCc3ccccc3C2C1 (stereo not given) [Praziquantel] (concentration: 25 µM)
reported.result: 0.781
--
molecule: CC(=O)Oc1cc2c(s1)CCN(C(C(=O)C1CC1)c1ccccc1F)C2 (stereo not given) [Prasugrel] (concentration: 25 µM)
reported.result: 0.831

// field: cell count; key: CC1(C)C[C@@H]1C(=O)N/C(=C\CCCCSC[C@H](N)C(=O)O)C(=O)O [Cilastatin·Na] (concentration: 25 µM) ; value = 1.03

// field: cell count; key: Oc1c(Cl)cc(Cl)c(Cl)c1Cc1c(O)c(Cl)cc(Cl)c1Cl [Hexachlorophene] (concentration: 2.5 µM) ; value = 0.433

// field: cell count; key: O=C(N[C@H](CO)[C@H](O)c1ccc([N+](=O)[O-])cc1)C(Cl)Cl [Chloramphenicol] (concentration: 25 µM) ; value = 0.819

// field: cell count; key: CCN(CC)CC#CCOC(=O)C(O)(c1ccccc1)C1CCCCC1 (stereo not given) [Oxybutynin Chloride] (concentration: 25 µM) ; value = 0.895

// field: cell count; key: COC(=O)CCc1ccc(OCC(O)CNC(C)C)cc1 (stereo not given) [Esmolol] (concentration: 25 µM) ; value = 1.08

// field: cell count; key: CC(C)N1CCN(c2ccc(OCC3COC(Cn4cncn4)(c4ccc(Cl)cc4Cl)O3)cc2)CC1 (stereo not given) [Terconazole] (concentration: 25 µM) ; value = 0.299

// field: cell count; key: CC(C)[N+]1(C)[C@@H]2CC[C@H]1CC(OC(=O)C(CO)c1ccccc1)C2 (stereo not given in full) [Ipratropium·Br] (concentration: 25 µM) ; value = 0.704

###

# Tested on: Jurkat
# assay.summary: cell count relative to DMSO control (fraction of control); higher = more cells (less growth inhibition)
# assay.conditions: 48 h
Counter-ions that a name gives are not always drawn.
Overview of reported cell count across a group of compounds:
Would you mind answering with just the numeric figure?

Guide cases for cell count, answers given:
compound: C[C@]12CC[C@@H]3c4ccc(O)cc4CC[C@H]3[C@@H]1CCC2=O [Estrone] (concentration: 25 µM)
cell count: 0.842
--
compound: CO/N=C(\C(=O)N[C@@H]1C(=O)N2C(C(=O)O)=C(COC(N)=O)CS[C@H]12)c1ccco1 [Cefuroxime·Na] (concentration: 25 µM)
cell count: 0.945

// field: cell count; key: COc1ccc(CCN(C)CCCC(C#N)(c2ccc(OC)c(OC)c2)C(C)C)cc1OC (stereo not drawn) [Verapamil·HCl] (concentration: 25 µM) ; value = 0.756

###

Overview of reported mean cell size across a group of molecules:
# Tested on: Jurkat
# assay.summary: mean cell size (FSC-A) relative to DMSO control (fraction of control); higher = larger cells
# assay.conditions: 48 h
Counter-ions that a name gives are not always drawn.
Would you mind answering with just the numeric figure?

molecule: O=C(O)CCCc1ccccc1 [Sodium Phenylbutyrate] (concentration: 25 µM)
assayed.system: Jurkat
mean cell size: 0.936
//
molecule: CC(C)(O)c1ccccc1CC[C@@H](SCC1(CC(=O)O)CC1)c1cccc(/C=C/c2ccc3ccc(Cl)cc3n2)c1 [Montelukast·Na] (concentration: 25 µM)
assayed.system: Jurkat
mean cell size: 1.02
//
molecule: NC(=O)N1c2ccccc2C=Cc2ccccc21 [Carbamazepine] (concentration: 25 µM)
assayed.system: Jurkat
mean cell size: 0.955
//
molecule: O=c1[nH]c(=O)n([C@H]2C[C@H](O)[C@@H](CO)O2)cc1F [Floxuridine] (concentration: 25 nM)
assayed.system: Jurkat
mean cell size: 1.06
//
molecule: CN[C@@H]1[C@H](O[C@H]2[C@H](O[C@H]3[C@H](O)[C@@H](O)[C@H](N=C(N)N)[C@@H](O)[C@@H]3N=C(N)N)O[C@@H](C)[C@]2(O)C=O)O[C@@H](CO)[C@H](O)[C@H]1O [Streptomycin Sulfate] (concentration: 25 µM)
assayed.system: Jurkat
mean cell size: 0.996

In the following, a different molecule is considered.
// field: mean cell size; key: CCN(CC)CCNC(=O)c1c(C)[nH]c(/C=C2\C(=O)Nc3ccc(F)cc32)c1C [Sunitinib Malate] (concentration: 250 nM) ; value = 0.906
